Reference for the values: the supplement of paper PMC4466140

I'd be grateful if you could share measured SPOT peptide array binding signal intensity for these entries.
Target: AgNbp2
Assay: SPOT peptide array binding signal intensity (averaged, normalized) (arbitrary units (background-subtracted, floor 0; scale differs between SH3 domains)); higher = stronger binding of the SH3 domain to the peptide
Output: the number by itself.

[ask] Fill in SPOT peptide array binding signal intensity for record "YHSRRHPLALGFKYV"
[reply] 41.5

[ask] Fill in SPOT peptide array binding signal intensity for record "GKFIPSRPAPKPPSS"
[reply] 4160

[ask] Fill in SPOT peptide array binding signal intensity for record "YSRKKLPVVLSKMTL"
[reply] 48.5

[ask] Fill in SPOT peptide array binding signal intensity for record "KRRTSLFPWLHKPGI"
[reply] 196

[ask] Fill in SPOT peptide array binding signal intensity for record "TIRRRAPLSLLESHT"
[reply] 397

[ask] Fill in SPOT peptide array binding signal intensity for record "SRQAIPPPVPNRPGG"
[reply] 106

[ask] Fill in SPOT peptide array binding signal intensity for record "RLSRLLLSLPPESFT"
[reply] 47.5

[ask] Fill in SPOT peptide array binding signal intensity for record "DFTLPPPPPPPGLDE"
[reply] 32.5

[ask] Fill in SPOT peptide array binding signal intensity for record "NPLPKEPRLPKRKVA"
[reply] 25

[ask] Fill in SPOT peptide array binding signal intensity for record "GLRRARYKFPGQQKI"
[reply] 55

[ask] Fill in SPOT peptide array binding signal intensity for record "NLDRSKISLPDFDDE"
[reply] 4

[ask] Fill in SPOT peptide array binding signal intensity for record "NRPAIRIPSLKKPAL"
[reply] 114
